The following compounds are listed with their measured Vd values.
# experiment.summary: clinical
# condition.info: human, in vivo, iv, Vdss
Give just the number in L/kg; leave the unit off.

[
  {
    "compound": "COc1nc(C)nc(Cl)c1N=C1NCCN1 [MOXONIDINE]",
    "unit.label": "L/kg",
    "reported": 1.8
  }
]

# context switch: different compound, same Vd
Exercise: # return recorded Vd for input CCCCCCCCCC(=O)N[C@@H](Cc1c[nH]c2ccccc12)C(=O)N[C@H](CC(N)=O)C(=O)N[C@@H](CC(=O)O)C(=O)N[C@@H]1C(=O)NCC(=O)N[C@@H](CCCN)C(=O)N[C@@H](CC(=O)O)C(=O)N[C@H](C)C(=O)N[C@@H](CC(=O)O)C(=O)NCC(=O)N[C@H](CO)C(=O)N[C@@H]([C@H](C)CC(=O)O)C(=O)N[C@@H](CC(=O)c2ccccc2N)C(=O)O[C@@H]1C
Solution: 0.088
